assay: Inhibition of ABCB1 (unknown origin) expressed in HEK293T cells assessed as reduction in colchicine IC50 at 2 uM pre-incubated for 4 hrs followed by colchicine addition and measured after 72 hrs by MTT assay
result type: pIC50
Numbers only, as −log10 of the molar value.

pIC50 lookup needed for COc1cc2ncnc(-c3c(-c4ccccc4)n(Cc4ccccc4Br)c4ccccc34)c2cc1OCCCN1CCOCC1 , thanks.
4.65

* * *

assay: Inhibition of ABCB1 (unknown origin) expressed in HEK293T cells assessed as reduction in colchicine IC50 at 0.5 uM pre-incubated for 4 hrs followed by colchicine addition and measured after 72 hrs by MTT assay
result type: pIC50
Numbers only, as −log10 of the molar value.

pIC50 lookup needed for COc1cc2ncnc(-c3c(-c4ccccc4)n(Cc4ccccc4Br)c4ccccc34)c2cc1OCCCN1CCOCC1 , thanks.
3.49
